This listing pairs molecules with measured Percentage Present, Untreated Section.
- Test system: German cockroaches (Blatella Germanica)
- test.summary: Cockroach repellency screening on partially treated formica surface (Example 2)
- Assay type: in vivo
- study.conditions: cockroaches; 20 mg/m^2 on formica; 1 day after treatment

{"molecule": "CCCNC(=O)C1CC(C)CCC1C(C)C (stereo not drawn) [Compound 3, N-propyl-p-menthane-3-carboxamide]", "result.units": "%", "Percentage Present, Untreated Section": 83.7}
{"molecule": "CCN(CC)C(=O)C1CC(C)CCC1C(C)C (stereo not drawn) [Compound 6, N,N-diethyl-p-menthane-3-carboxamide]", "result.units": "%", "Percentage Present, Untreated Section": 88.7}
{"molecule": "CC1CCC(C(C)C)C(C(=O)N(C)C)C1 (stereo not drawn) [Compound 5, N,N-dimethyl-p-menthane-3-carboxamide]", "result.units": "%", "Percentage Present, Untreated Section": 85.0}
{"molecule": "CCNC(=O)C1CC(C)CCC1C(C)C (stereo not drawn) [Compound 2, N-ethyl-p-menthane-3-carboxamide]", "result.units": "%", "Percentage Present, Untreated Section": 82.5}
{"molecule": "CC1CCC(C(C)C)C(C(=O)Nc2ccccc2)C1 (stereo not drawn) [Compound 4, N-phenyl-p-menthane-3-carboxamide]", "result.units": "%", "Percentage Present, Untreated Section": 53.7}
{"molecule": "CNC(=O)C1CC(C)CCC1C(C)C (stereo not drawn) [Compound 1, N-methyl-p-menthane-3-carboxamide]", "result.units": "%", "Percentage Present, Untreated Section": 81.3}
